System: U2OS
Assay: Multiplex assay against U2OS
Assay type: toxicity, cell-based
Conditions: human, 12 h, 1 µM, compound concentration 1 uM, replicate 2
property_label: Population Healthy Nuclei (%)
A complete answer gives the number followed by the unit.

As a guide, the following entries are already answered.
O=C(NCC(=O)N1CC[C@H](N[C@H]2CC[C@@](O)(c3ccc(-c4ncccn4)cn3)CC2)C1)c1cccc(C(F)(F)F)c1 [PF-4136309]	74%
COc1c(C)cc(NC(=O)c2nn(Cc3ccc(F)cc3)c3c2CN(C(=O)c2ccc[nH]2)C[C@]3(C)C(N)=O)cc1C	72%
O=C(O)Cc1ccccc1Nc1c(Cl)cccc1Cl [DICLOFENAC]	76%
COc1cc(C(=O)N(CCCc2ccccc2)Cc2ccc(CC(=O)O)cc2)cc(OC)c1C	65%
CCCn1c(=O)c2[nH]c(C3CCCC3)nc2n(CCC)c1=O	72%

Hi there! I need Population Healthy Nuclei (%) for each item below, if you can.
1. COc1ccc2c(c1)C(C(=O)N(Cc1ccc(N(C)C)cc1)c1ccc(C(C)C)cc1)CCC2.Cl (centres undefined)
2. O=C(O)c1cc2ccccc2c(Cc2c(O)c(C(=O)O)cc3ccccc23)c1O [PAMOIC ACID]
3. O=C(NCCO)c1cccc(-c2cc(Nc3ccc(OC(F)(F)F)cc3)ncn2)c1
4. CNC[C@H](O)c1ccc(O)c(O)c1 [EPINEPHRINE]
5. Cc1ccccc1C(=O)Nc1ccc(C(=O)N2CCCC(N(C)C)c3ccccc32)cc1.Cl (centres undefined)
6. C[C@H](NC(=O)c1c(C(F)F)nn(C)c1Oc1cccc(C(F)(F)F)c1)c1ccc(C(=O)O)cc1 [PALUPIPRANT]
7. CC1(COc2ccc3c(c2)ncn3-c2ccc3cccc(N4CCC(N)CC4)c3n2)COC1 [CRENOLANIB]

Return:
73%
73%
73%
77%
79%
78%
60%

Hi there! I need Population Healthy Nuclei (%) for each item below, if you can.
1. Cl.Clc1ccc2nsnc2c1NC1=NCCN1 [TIZANIDINE HYDROCHLORIDE]
2. CC(=O)NCCc1c(Cc2ccccc2)[nH]c2ccccc12 [LUZINDOLE]

Return:
["78%", "77%"]

Hi there! I need Population Healthy Nuclei (%) for each item below, if you can.
1. O=C1COc2nccc(-c3ccccc3F)c2CN1Cc1cc(C(F)(F)F)cc(C(F)(F)F)c1
2. CCNC1(C(N)=O)CCN(c2ncnc3c2nc(-c2ccccc2Cl)n3-c2ccc(Cl)cc2)CC1 [OTENABANT]
3. CN1CCN2c3ncccc3Cc3ccccc3C2C1 (centres undefined) [MIRTAZAPINE]
4. Cc1ccc(/C(=C\CN2CCCC2)c2ccccn2)cc1 [TRIPROLIDINE]
5. N[C@@]1(C(=O)O)CO[C@H]2[C@H](C(=O)O)[C@H]21 [LY-379268]

Return:
67%
74%
72%
70%
79%
